# Tested on: CP201
# Assay text: qHTS profiling for inhibitors of Plasmodium falciparum proliferation (AID 504749); note: nearly all actives have a fitted effect of over 60% in size
# Condition description: P. falciparum in erythrocytes, SYBR Green DNA, 72 h; series mostly up to 28.7 µM
Results filed as inconclusive are left out. The source made the active and inactive calls. Calls come from the whole dose curve; as a rule, active = well fitted inhibition curve with a large enough effect; inconclusive = small, poorly fitted or top-dose-only effect; inactive = flat fitted curve, though single readings scatter.
Measured parameter: outcome

// known answers, use as guide
[[record]]
structure_notation = "c1ccc(-n2cnnn2)cc1"
endpoint_value = "inactive"

[[record]]
structure_notation = "CNC(=O)C[C@@H](N)C(=O)N[C@@H](C(=O)N[C@@H]1C(=O)N2[C@@H]1SC(C)(C)[C@@H]2C(=O)O)c1ccc(O)cc1"
endpoint_value = "inactive"

[[record]]
structure_notation = "O=c1[nH]c(=O)n([C@H]2C[C@H](O)[C@@H](CO)O2)cc1/C=C/Br"
endpoint_value = "inactive"

[[record]]
structure_notation = "CN(C)C=Nc1c(I)cc(I)c(CCC(=O)O)c1I"
endpoint_value = "inactive"

[[record]]
structure_notation = "Cc1c(C)c2c(c(C)c1OC(=O)CCC(=O)O)CC[C@@](C)(CCC[C@H](C)CCC[C@H](C)CCCC(C)C)O2"
endpoint_value = "inactive"

[[record]]
structure_notation = "CC(=O)N=c1sc(S(N)(=O)=O)nn1C"
endpoint_value = "inactive"


[in] Look at this compound and give its reported outcome. CCOC(=O)[C@@H](N)CS
[out] inactive

[in] Look at this compound and give its reported outcome. CCOc1ccc(S(=O)(=O)O)c2cccnc12
[out] inactive

[in] Look at this compound and give its reported outcome. CC1=CC(=O)NS(=O)(=O)O1
[out] inactive

----------
# Assay text: P-glycoprotein substrates identified in KB-8-5-11 adenocarcinoma cell line, qHTS therapeutic library screen (AID 1346987); note: nearly all actives have a fitted effect of over 65% in size
# Condition description: KB-8-5-11 (P-gp overexpressing) viability, CellTiter-Glo, 72 h; series mostly up to 44.5 µM
Records with an inconclusive call do not appear. Active and inactive are the calls of the source. Calls come from the whole dose curve; as a rule, active = well fitted inhibition curve with a large enough effect; inconclusive = small, poorly fitted or top-dose-only effect; inactive = flat fitted curve, though single readings scatter.
Measured parameter: Potency

// known answers, use as guide
[[record]]
compound = "O=C(O)/C=C/c1ccccc1"
measured_parameter = "Potency"
endpoint_value = "inactive"

[[record]]
compound = "CCC(O)c1ccccc1 (stereo not given)"
measured_parameter = "Potency"
endpoint_value = "inactive"

[[record]]
compound = "CO/N=C(\\C(=O)N[C@@H]1C(=O)N2C(C(=O)O)=C(CSC(=O)c3ccco3)CS[C@H]12)c1csc(N)n1"
measured_parameter = "Potency"
endpoint_value = "inactive"

[[record]]
compound = "CCCCC/C=C\\C/C=C\\C/C=C\\CCCCC(=O)O"
measured_parameter = "Potency"
endpoint_value = "inactive"

[[record]]
compound = "OC[C@H]1O[C@@H](O[C@H]2[C@H](O)[C@@H](O)[C@H](O)O[C@@H]2CO)[C@H](O)[C@@H](O)[C@@H]1O"
measured_parameter = "Potency"
endpoint_value = "inactive"

[[record]]
compound = "O=S(=O)(O)CCCS(=O)(=O)O"
measured_parameter = "Potency"
endpoint_value = "inactive"

[[record]]
compound = "CC(C)C1=CC2=CC[C@@H]3[C@](C)(CCC[C@@]3(C)C(=O)O)[C@H]2CC1"
measured_parameter = "Potency"
endpoint_value = "inactive"

[[record]]
compound = "O=C(NNCS(=O)(=O)O)c1ccncc1"
measured_parameter = "Potency"
endpoint_value = "inactive"

[[record]]
compound = "CCN(CC)CCOc1ccccc1OC"
measured_parameter = "Potency"
endpoint_value = "inactive"

[[record]]
compound = "CC(C)CCC[C@@H](C)[C@H]1CC[C@H]2[C@@H]3CC[C@@H]4C[C@H](O)CC[C@]4(C)[C@H]3CC[C@]12C"
measured_parameter = "Potency"
endpoint_value = "inactive"


[in] Look at this compound and give its reported Potency. Cc1c(O)c(=O)ccn1C
[out] inactive

[in] Look at this compound and give its reported Potency. CN1CCN(C(c2ccccc2)c2ccc(Cl)cc2)CC1 (stereo not given)
[out] inactive

[in] Look at this compound and give its reported Potency. Nc1nccs1
[out] inactive

[in] Look at this compound and give its reported Potency. CCCC(CCC)C(=O)OC1C[C@H]2CC[C@@H](C1)[N+]2(C)C (stereo not given in full)
[out] inactive

[in] Look at this compound and give its reported Potency. CN1c2c(nc(N)[nH]c2=O)NCC1CNc1ccc(C(=O)NC(CCC(=O)O)C(=O)O)cc1 (stereo not given)
[out] inactive

[in] Look at this compound and give its reported Potency. NC(=S)NS(=O)(=O)c1ccc(N)cc1
[out] inactive

[in] Look at this compound and give its reported Potency. CC[C@H]1NC(=O)[C@@H](NC(=O)c2ncccc2O)[C@@H](C)OC(=O)[C@H](c2ccccc2)NC(=O)[C@@H]2CC(=O)CCN2C(=O)[C@H](Cc2ccccc2)N(C)C(=O)[C@@H]2CCCN2C1=O
[out] inactive

[in] Look at this compound and give its reported Potency. COC(=O)[C@@H](N)CS
[out] inactive

Cited source: PubChem BioAssay (NCATS)
